- ASSAY REMARKS: plasma protein binding
- Format: in vitro ADME
- CONDITION: read-out: plasma protein binding, free fraction
OBSERVATION TYPE: fraction unbound

[Q] Query: fraction unbound; subject: `O/N=c1\cc(-c2cc3sccc3cn2)oc2ccc(CCCN3CCOCC3)cc12`
[A] < 0.01

###

- ASSAY REMARKS: in vivo pharmacokinetics in rats (plasma and brain exposure)
- Design: species or system male Sprague-Dawley rats
- CONDITION: male, Sprague-Dawley, plasma, oral; rat, p.o. 10 mg/kg vs i.v. 1 mg/kg
OBSERVATION TYPE: bioavailability (%)
Supply the numeric figure in %, leaving out any unit text.

[Q] Looking for the measured bioavailability of O/N=c1\cc(-c2cc3sccc3cn2)oc2ccc(CCCN3CCOCC3)cc12 [PXT002331] , can you help?
[A] 39
